Reference source for all entries: paper PMC4955127

Biological target: Bgl3A (Evansstolkia leycettana, UniProt A0A1B0VFN7)
Sequence (A0A1B0VFN7 20-737): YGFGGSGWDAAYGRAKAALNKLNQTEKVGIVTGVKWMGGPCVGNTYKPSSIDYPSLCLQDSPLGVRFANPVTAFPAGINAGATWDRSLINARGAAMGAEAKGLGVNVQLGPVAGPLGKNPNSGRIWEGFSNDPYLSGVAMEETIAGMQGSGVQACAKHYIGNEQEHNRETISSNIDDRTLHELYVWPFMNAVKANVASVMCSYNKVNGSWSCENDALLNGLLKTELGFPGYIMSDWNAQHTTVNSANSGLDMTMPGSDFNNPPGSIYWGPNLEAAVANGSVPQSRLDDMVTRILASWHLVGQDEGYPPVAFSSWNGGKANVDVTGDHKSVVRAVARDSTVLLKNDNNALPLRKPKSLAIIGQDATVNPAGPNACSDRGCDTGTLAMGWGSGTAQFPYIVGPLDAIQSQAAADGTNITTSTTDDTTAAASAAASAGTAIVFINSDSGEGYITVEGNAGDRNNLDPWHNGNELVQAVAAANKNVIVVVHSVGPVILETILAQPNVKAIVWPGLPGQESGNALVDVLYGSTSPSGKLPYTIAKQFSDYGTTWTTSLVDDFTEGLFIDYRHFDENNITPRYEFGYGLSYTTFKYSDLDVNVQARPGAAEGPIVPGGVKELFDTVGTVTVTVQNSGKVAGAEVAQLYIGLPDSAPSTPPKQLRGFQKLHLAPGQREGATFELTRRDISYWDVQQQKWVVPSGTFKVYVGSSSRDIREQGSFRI
test_readout: Ki

molecule	test_readout	recorded_value
OC[C@H]1OC(O)[C@H](O)[C@@H](O)[C@@H]1O (stereo partly shown) [glucose]	Ki	14 mM
